Origin of values: ChEMBL document CHEMBL4834405

# system: Peptidyl-prolyl cis-trans isomerase FKBP1B (Homo sapiens)
# Sequence (P68106 whole entry): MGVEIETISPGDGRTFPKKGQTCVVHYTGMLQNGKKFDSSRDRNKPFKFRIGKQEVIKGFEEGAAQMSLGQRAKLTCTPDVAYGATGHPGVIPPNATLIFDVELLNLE
# test.summary: Displacement of fluorescent tracer 5-(3-(4-((1S,5S,6S)-10-(3,5-dichlorophenylsulfonyl)-2-oxo-3-(pyridin-3-ylmethyl)-3,10-diazabicyclo[4.3.1]decan-5-yl)-1H-1,2,3-triazol-1-yl)propylcarbamoyl)-2-(6-(dimethylamino)-3-(dimethyliminio)-3H-xanthen-9-yl)benzoate from recombinant full length C-terminal FLAG-tagged FKBP12.6 (unknown origin) expressed in Escherichia coli BL21 (DE3) cells incubated for 30 mins by fluorescence polarisation competition assay
measure.name: Kd (nM)

Please review the entries below; each comes with its answer.
[
  {
    "smiles.string": "COc1ccc(CC[C@H]2OC(=O)[C@@H]3CCCCN3C(=O)[C@@H](C3CCCCC3)c3cc(OC)c(OC)c(c3)OCCC(=O)COc3cccc2c3)cc1OC",
    "system": "Peptidyl-prolyl cis-trans isomerase FKBP1B (Homo sapiens)",
    "unit.string": "nM",
    "Kd": 32
  },
  {
    "smiles.string": "COc1ccc(CC[C@H]2OC(=O)[C@@H]3CCCCN3C(=O)[C@@H](C3CCCCC3)c3cc(OC)c(OC)c(c3)OC[C@@H](O)[C@H](O)COc3cccc2c3)cc1OC",
    "system": "Peptidyl-prolyl cis-trans isomerase FKBP1B (Homo sapiens)",
    "unit.string": "nM",
    "Kd": 9
  },
  {
    "smiles.string": "COc1ccc(CC[C@H]2OC(=O)[C@@H]3CCCCN3C(=O)[C@@H](C3CCCCC3)c3cc(OC)c(OC)c(c3)OCC/C=C\\COc3cccc2c3)cc1OC",
    "system": "Peptidyl-prolyl cis-trans isomerase FKBP1B (Homo sapiens)",
    "unit.string": "nM",
    "Kd": 116
  },
  {
    "smiles.string": "COc1ccc(CC[C@H]2OC(=O)[C@@H]3CCCCN3C(=O)[C@@H](C3CCCCC3)c3cc(OC)c(OC)c(c3)OCCCC(=O)COc3cccc2c3)cc1OC",
    "system": "Peptidyl-prolyl cis-trans isomerase FKBP1B (Homo sapiens)",
    "unit.string": "nM",
    "Kd": 43
  }
]

I. COc1ccc(CC[C@H]2OC(=O)[C@@H]3CCCCN3C(=O)[C@@H](C3CCCCC3)c3cc(OC)c(c(OC)c3)OCCC(=O)COc3cccc2c3)cc1OC
II. COc1ccc(CC[C@H]2OC(=O)[C@@H]3CCCCN3C(=O)[C@@H](C3CCCCC3)c3cc(OC)c(c(OC)c3)OC/C=C\COc3cccc2c3)cc1OC
Quick check, higher Kd between I and II ? Write down the label of the entry you select. II
(II: 658 nM, I: 38 nM)
